Source listed as paper PMC5540273.

System: HCK;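 note: KINOMEscan kinase panel screen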
Settings: concentration: 1 μM, replicates: in singlicate; n = 1
parameter measured: %Inh (%)
Kindly answer with a numeric value in %, unit omitted.

Use these answered entries as a reference point.
>>> quantitative_readout("Fc1ccc(-c2ncn(CCCNCc3ccccc3)c2-c2ccncc2)cc1")
7
>>> quantitative_readout("COc1cc2c(Nc3cccc(NC(=O)c4ccccc4)c3)ncnc2cc1OCCCN1CCOCC1")
0
>>> quantitative_readout("COc1ccc(Nc2nccc(N3CCC(NC(=O)c4cccc(NC(C)=O)c4)C3)n2)cc1 (stereo not shown)")
0
>>> quantitative_readout("COc1ccc(-c2oc3ncnc(N)c3c2-c2ccc(OC)cc2)cc1")
14
>>> quantitative_readout("O=C(Nc1ccccc1)Nc1ccc(Oc2ccc3nccn3n2)cc1")
7

Could you tell me which %Inh is on file for "Fc1ccc(Nc2nccc(-c3c(-c4ccc(Cl)cc4)nn4ncccc34)n2)cc1F" ?
15

Same question, "Cl.c1ccc(Cn2ncc3cc(Nc4ncnc5ccccc45)ccc32)cc1" this time
0
